# METHOD_NOTES: Biodistribution in BxPC3-luc tumor-bearing mice
# Assay type: in vivo, BALB/c nu/nu mice
# CONDITION_LABEL: female, BALB/c nu/nu, mouse, bone, iv, 74 kBq, total radioactivity; 1 h post-injection, i.v.; read-out: Biodistribution, Bone
Where a SMILES comes first, the peptide text is derived from it. The star is where a group is joined. DOTA = O=C(O)CN1CCN(CC(=O)O)CCN(CC(=O)*)CCN(CC(=O)O)CC1; AEEA = NCCOCCOCC(=O)O
MEASUREMENT_LABEL: tissue uptake at 1 h (%ID/g)

compound="CC[C@H](C)[C@H](NC(=O)COCCOCCNC(=O)CN1CCN(CC(=O)O)CCN(CC(=O)O)CCN(CC(=O)O)CC1)C(=O)N1CCC[C@H]1C(=O)N[C@@H](CC(C)C)C(=O)N1CCC[C@H]1C(=O)N1CCC[C@H]1C(=O)N1CCC[C@H]1C(=O)N[C@@H](CCCNC(=N)N)C(=O)N[C@@H](CCCNC(=N)N)C(=O)N1CCC[C@H]1C(=O)N[C@@H](Cc1ccccc1)C(=O)N[C@@H](Cc1ccccc1)C(=O)N[C@@H](CCCCN)C(=O)O [[^67Ga]27, [^67Ga]Ga-DOTA-EG2-IPLPPPRRPFFK, metal not drawn] ({DOTA-AEEA}-IPLPPPRRPFFK-OH)" measurement_label="tissue uptake at 1 h" value_reported=0.24

---

# METHOD_NOTES: Biodistribution in BxPC3-luc tumor-bearing mice
# Format: in vivo, BALB/c nu/nu mice
# CONDITION_LABEL: female, BALB/c nu/nu, mouse, lung, iv, 74 kBq, total radioactivity; 10 min post-injection, i.v.; read-out: Biodistribution, Lung
Where a SMILES comes first, the peptide text is derived from it. The star is where a group is joined. DOTA = O=C(O)CN1CCN(CC(=O)O)CCN(CC(=O)*)CCN(CC(=O)O)CC1; AEEA = NCCOCCOCC(=O)O
MEASUREMENT_LABEL: tissue uptake at 10 min (%ID/g)

compound="CC[C@H](C)[C@H](NC(=O)COCCOCCNC(=O)CN1CCN(CC(=O)O)CCN(CC(=O)O)CCN(CC(=O)O)CC1)C(=O)N1CCC[C@H]1C(=O)N[C@@H](CC(C)C)C(=O)N1CCC[C@H]1C(=O)N1CCC[C@H]1C(=O)N1CCC[C@H]1C(=O)N[C@@H](CCCNC(=N)N)C(=O)N[C@@H](CCCNC(=N)N)C(=O)N1CCC[C@H]1C(=O)N[C@@H](Cc1ccccc1)C(=O)N[C@@H](Cc1ccccc1)C(=O)N[C@@H](CCCCN)C(=O)O [[^67Ga]27, [^67Ga]Ga-DOTA-EG2-IPLPPPRRPFFK, metal not drawn] ({DOTA-AEEA}-IPLPPPRRPFFK-OH)" value_reported=3.7

---

# METHOD_NOTES: in vitro
# CONDITION_LABEL: mouse, plasma, In vitro stability in murine plasma, percentage of remained intact radiotracer
Where a SMILES comes first, the peptide text is derived from it. The star is where a group is joined. DOTA = O=C(O)CN1CCN(CC(=O)O)CCN(CC(=O)*)CCN(CC(=O)O)CC1
MEASUREMENT_LABEL: remaining at 1 h (%)

molecule="CC[C@H](C)[C@H](NC(=O)CN1CCN(CC(=O)O)CCN(CC(=O)O)CCN(CC(=O)O)CC1)C(=O)N1CCC[C@H]1C(=O)N[C@@H](CC(C)C)C(=O)N1CCC[C@H]1C(=O)N1CCC[C@H]1C(=O)N1CCC[C@H]1C(=O)N[C@@H](CCCNC(=N)N)C(=O)N[C@@H](CCCNC(=N)N)C(=O)N1CCC[C@H]1C(=O)N[C@@H](Cc1ccccc1)C(=O)N[C@@H](Cc1ccccc1)C(=O)N[C@@H](CCCCN)C(=O)O [[^67Ga]22, [^67Ga]Ga-DOTA-IPLPPPRRPFFK, metal not drawn] ({DOTA}-IPLPPPRRPFFK-OH)" measurement_label="remaining at 1 h" endpoint_unit=% value_reported=35

---

# METHOD_NOTES: Biodistribution in BxPC3-luc tumor-bearing mice
# Assay type: in vivo, BALB/c nu/nu mice
# CONDITION_LABEL: female, BALB/c nu/nu, mouse, small intestine, iv, 74 kBq, total radioactivity; 1 h post-injection, i.v.; read-out: Biodistribution, Small intestine
Where a SMILES comes first, the peptide text is derived from it. The star is where a group is joined. DOTA = O=C(O)CN1CCN(CC(=O)O)CCN(CC(=O)*)CCN(CC(=O)O)CC1; AEEA = NCCOCCOCC(=O)O
MEASUREMENT_LABEL: tissue uptake at 1 h (%ID/g)

compound="CC[C@H](C)[C@H](NC(=O)COCCOCCNC(=O)CN1CCN(CC(=O)O)CCN(CC(=O)O)CCN(CC(=O)O)CC1)C(=O)N1CCC[C@H]1C(=O)N[C@@H](CC(C)C)C(=O)N1CCC[C@H]1C(=O)N1CCC[C@H]1C(=O)N1CCC[C@H]1C(=O)N[C@@H](CCCNC(=N)N)C(=O)N[C@@H](CCCNC(=N)N)C(=O)N1CCC[C@H]1C(=O)N[C@@H](Cc1ccccc1)C(=O)N[C@@H](Cc1ccccc1)C(=O)N[C@@H](CCCCN)C(=O)O [[^67Ga]27, [^67Ga]Ga-DOTA-EG2-IPLPPPRRPFFK, metal not drawn] ({DOTA-AEEA}-IPLPPPRRPFFK-OH)" endpoint_unit=%ID/g value_reported=0.63

---

# METHOD_NOTES: Biodistribution in BxPC3-luc tumor-bearing mice
# Type: in vivo, BALB/c nu/nu mice
# CONDITION_LABEL: female, BALB/c nu/nu, mouse, liver, iv, 74 kBq, total radioactivity; 10 min post-injection, i.v.; read-out: Biodistribution, Liver
Where a SMILES comes first, the peptide text is derived from it. The star is where a group is joined. DOTA = O=C(O)CN1CCN(CC(=O)O)CCN(CC(=O)*)CCN(CC(=O)O)CC1; AEEA = NCCOCCOCC(=O)O
MEASUREMENT_LABEL: tissue uptake at 10 min (%ID/g)

compound="CC[C@H](C)[C@H](NC(=O)COCCOCCNC(=O)CN1CCN(CC(=O)O)CCN(CC(=O)O)CCN(CC(=O)O)CC1)C(=O)N1CCC[C@H]1C(=O)N[C@@H](CC(C)C)C(=O)N1CCC[C@H]1C(=O)N1CCC[C@H]1C(=O)N1CCC[C@H]1C(=O)N[C@@H](CCCNC(=N)N)C(=O)N[C@@H](CCCNC(=N)N)C(=O)N1CCC[C@H]1C(=O)N[C@@H](Cc1ccccc1)C(=O)N[C@@H](Cc1ccccc1)C(=O)N[C@@H](CCCCN)C(=O)O [[^67Ga]27, [^67Ga]Ga-DOTA-EG2-IPLPPPRRPFFK, metal not drawn] ({DOTA-AEEA}-IPLPPPRRPFFK-OH)" measurement_label="tissue uptake at 10 min" value_reported=0.9

---

# METHOD_NOTES: Biodistribution in BxPC3-luc tumor-bearing mice
# Assay type: in vivo, BALB/c nu/nu mice
# CONDITION_LABEL: female, BALB/c nu/nu, stomach, iv, total radioactivity; 1 h, blocking: co-injection of IPLPPPRRPFFK 1 mg/mouse
Where a SMILES comes first, the peptide text is derived from it. The star is where a group is joined. DOTA = O=C(O)CN1CCN(CC(=O)O)CCN(CC(=O)*)CCN(CC(=O)O)CC1; AEEA = NCCOCCOCC(=O)O
MEASUREMENT_LABEL: tissue uptake dose at 1 h (%ID)

compound="CC[C@H](C)[C@H](NC(=O)COCCOCCNC(=O)CN1CCN(CC(=O)O)CCN(CC(=O)O)CCN(CC(=O)O)CC1)C(=O)N1CCC[C@H]1C(=O)N[C@@H](CC(C)C)C(=O)N1CCC[C@H]1C(=O)N1CCC[C@H]1C(=O)N1CCC[C@H]1C(=O)N[C@@H](CCCNC(=N)N)C(=O)N[C@@H](CCCNC(=N)N)C(=O)N1CCC[C@H]1C(=O)N[C@@H](Cc1ccccc1)C(=O)N[C@@H](Cc1ccccc1)C(=O)N[C@@H](CCCCN)C(=O)O [[^67Ga]27, [^67Ga]Ga-DOTA-EG2-IPLPPPRRPFFK, metal not drawn] ({DOTA-AEEA}-IPLPPPRRPFFK-OH)" endpoint_unit=%ID value_reported=0.05

---

# METHOD_NOTES: Biodistribution in BxPC3-luc tumor-bearing mice
# Format: in vivo, BALB/c nu/nu mice
# CONDITION_LABEL: female, BALB/c nu/nu, mouse, muscle, iv, 74 kBq, total radioactivity; 1 h post-injection, i.v.; read-out: Biodistribution, Muscle
Where a SMILES comes first, the peptide text is derived from it. The star is where a group is joined. DOTA = O=C(O)CN1CCN(CC(=O)O)CCN(CC(=O)*)CCN(CC(=O)O)CC1; AEEA = NCCOCCOCC(=O)O
MEASUREMENT_LABEL: tissue uptake at 1 h (%ID/g)

compound="CC[C@H](C)[C@H](NC(=O)COCCOCCNC(=O)CN1CCN(CC(=O)O)CCN(CC(=O)O)CCN(CC(=O)O)CC1)C(=O)N1CCC[C@H]1C(=O)N[C@@H](CC(C)C)C(=O)N1CCC[C@H]1C(=O)N1CCC[C@H]1C(=O)N1CCC[C@H]1C(=O)N[C@@H](CCCNC(=N)N)C(=O)N[C@@H](CCCNC(=N)N)C(=O)N1CCC[C@H]1C(=O)N[C@@H](Cc1ccccc1)C(=O)N[C@@H](Cc1ccccc1)C(=O)N[C@@H](CCCCN)C(=O)O [[^67Ga]27, [^67Ga]Ga-DOTA-EG2-IPLPPPRRPFFK, metal not drawn] ({DOTA-AEEA}-IPLPPPRRPFFK-OH)" endpoint_unit=%ID/g value_reported=0.07
